- systemUnderTest: T1, purified human glycophorin A protein (Sigma, cat # G5017) (human, UniProt P02724 20-150)
- T1 construct: mature; also called Sigma hGPA; Sigma GPA
- T1 sequence (looked up): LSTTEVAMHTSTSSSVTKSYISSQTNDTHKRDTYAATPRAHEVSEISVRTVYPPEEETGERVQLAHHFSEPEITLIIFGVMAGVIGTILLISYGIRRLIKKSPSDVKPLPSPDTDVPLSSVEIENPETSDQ
- protocolDescription: ELISA, native hGPA
readoutName: binding by ELISA relative to parental

For orientation, consider the following solved cases.
{"binder": "TPP-5322 (Fab, V domains shown, also called VH: (S55G)) VH: EVQLVQSGAEVKKPGASVKVSCKASGYTFTTYTIHWVRQAPGQGLEWIGYINPSGDYTRYNPKFKDRVTLTTDKSTSTAYMELRSLRSDDTAVYYCQTGTRDYWGQGTTVTVSS VL: DIQLTQSPSFLSASVGDRVTITCSAASSVSYIYWFQQKPGKAPKLLIYSTSTLPSGVPSRFSGSGSGTEYTLTISSLQPEDFATYYCHQRNSFPFTFGQGTKLEIKR", "measuredValue": 0.86}
{"binder": "TPP-5316 (Fab, V domains shown, also called VH: (E1Q)) VH: QVQLVQSGAEVKKPGASVKVSCKASGYTFTTYTIHWVRQAPGQGLEWIGYINPSSDYTRYNPKFKDRVTLTTDKSTSTAYMELRSLRSDDTAVYYCQTGTRDYWGQGTTVTVSS VL: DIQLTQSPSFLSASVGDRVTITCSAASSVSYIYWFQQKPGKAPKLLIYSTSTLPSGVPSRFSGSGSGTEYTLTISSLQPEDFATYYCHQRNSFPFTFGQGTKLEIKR", "measuredValue": 1.33}

Below: the item to evaluate.
Query :: Reported binding by ELISA relative to parental for TPP-5334 (Fab, V domains shown, also called VH: (D89E)) VH: EVQLVQSGAEVKKPGASVKVSCKASGYTFTTYTIHWVRQAPGQGLEWIGYINPSSDYTRYNPKFKDRVTLTTDKSTSTAYMELRSLRSEDTAVYYCQTGTRDYWGQGTTVTVSS VL: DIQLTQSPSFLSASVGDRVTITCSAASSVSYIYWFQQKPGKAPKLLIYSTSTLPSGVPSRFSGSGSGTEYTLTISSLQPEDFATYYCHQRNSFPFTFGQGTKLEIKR : what is it?
Result :: 0.8
